Tested on: MCF7 breast
Assay: NCI tumour cell line growth inhibition, 48 h
Reported Endpoint: TGI

The measured TGI that Cc1ccc2[nH]c(C(=O)NN3C(=O)C(C)SC34CCCCC4C)c(-c3ccccc3)c2c1 (stereo not given) showed for MCF7 breast is > 100 µM

Reading of TGI for C=C1C(=O)O[C@H]2C[C@@H]1CCC1(C)OC1CC/C(C)=C/CC[C@H]2C (stereo not given in full) with MCF7 breast: 36.6 µM

# O=C1OCC2=C1C(c1cccc(C(F)(F)F)c1)c1cc3c(cc1N2CCO)CCC3 (stereo not given) with MCF7 breast: TGI is 7.65 µM

The molecule COc1ccc(/C=C2\CN(C)Cc3c2[nH]c(=O)c(C#N)c3-c2ccc(OC)cc2)cc1 , tested on MCF7 breast, showed TGI of > 100 µM

Record CC(=O)NC1=C(C)C(=O)c2c(nc3n2CC[C@H]3OC(C)=O)C1=O / MCF7 breast, TGI recorded as 3.37 µM

TGI on MCF7 breast for O=C(O)C1SCCS1 is > 100 µM

Fill in: MCF7 breast TGI for NC(=O)NCCSC1CCCCC1O (stereo not given) = > 100 µM

MCF7 breast data for Nc1nc2cc(CNc3ccc(C(=O)NC(CCC(=O)O)C(=O)O)cc3)ccc2nc1-c1ccccc1 (stereo not given) ; its TGI: > 10 µM

The recorded TGI with MCF7 breast for COc1ccc(-n2c(C)nc3c(c(C)nn3-c3ccccc3)c2=O)cc1 was > 100 µM

Value sought: TGI, system MCF7 breast, item CN(C)S(=O)(=O)c1ccc(Nc2ccc(O)c3c2C(=O)c2c([N+](=O)[O-])ccc(O)c2C3=O)cc1 . Result: > 100 µM

###

System: KM20L2 colon
Experiment: NCI tumour cell line growth inhibition, 48 h
Would you kindly list TGI for each of these compounds?

Noted for CN1CCCCC(C(O)(c2ccccc2)c2ccccc2)C1=O (configuration not stated) : its TGI reads > 100 µM

So for NC1=C(Cl)C(=O)c2ccccc2C1=O , the logged TGI turned out to be 28 µM

Entry Cc1cc2c(cc1Br)C1(C)CCC(C)C1(C)O2 (configuration not stated) , TGI reported as > 100 µM

Entry COC(=O)C1=Cc2c(cc(OC)c(OC)c2OC)[C@H](c2ccc(OC)c(OC)c2OC)C1C(=O)OC (some centres not stated) ; TGI = > 100 µM

The compound listed as CCOC12SC(=Nc3ccc(C)cc3)NN1C(=S)N(C)N=C2C (configuration not stated) has a reported TGI of > 100 µM

// recorded TGI for Cc1cc(N=C2C=C(Nc3cc(C)on3)C(=O)c3ccccc32)no1 : > 100 µM

Field TGI (entry Clc1ncnc2c1ncn2CCCCCCCCCCCCn1cnc2c(Cl)ncnc21 ) reads 30 µM

###

Test system: SNB-75 CNS
Assay: NCI tumour cell line growth inhibition, 48 h
Assign TGI to each entry below.

For record CC(C)(C)c1cc(C2COC(=O)COCC(=O)OCCOCCOCCO2)cc(C(C)(C)C)c1O (stereo unspecified) the listed TGI is 37 µM

// TGI lookup, molecule = CN(CCN(C)C(=O)CCOS(C)(=O)=O)C(=O)CCOS(C)(=O)=O , result: > 100 µM

Value of TGI reported for the molecule Cc1cc(N=C2C=C(Nc3cc(C)on3)C(=O)c3ccccc32)no1 is > 87.8 µM

Looking up NC(=O)CS(=O)CC(N)C(=O)O (stereo unspecified) , I found its TGI recorded as > 100 µM

Looking up O=C(NC1(C(=O)O)CC1c1ccccc1)c1ccccc1 (stereo unspecified) , I see its TGI listed as > 100 µM

Looking up CN1CCCCC(C(O)(c2ccccc2)c2ccccc2)C1=O (stereo unspecified) , I see its TGI listed as > 100 µM

The value of TGI measured for the molecule COc1ccccc1NC(=O)CC(=O)NNCC(=O)Nc1nnc(-c2ccccc2)o1 turned out to be > 100 µM

Per the records, this molecule ( O=C(O)CCCNS(=O)(=O)c1ccc2ccccc2c1 ) has TGI equal to > 100 µM

Per the record, COC(=O)[C@]12CC=C3O[C@@H]4OC5(CCCCC5)O[C@@H]4[C@H]3C1C(=O)C=CC2=O (stereo partly specified) has TGI of 34.7 µM

Measured TGI, CC(C)C(C/C=C1\CC(CO)(COC(=O)CC(C(C)C)C(C)C)OC1=O)C(C)C (stereo unspecified) : 22.9 µM

The value of TGI measured for the molecule N=C(N)c1ccc(-c2ccc(-c3ccc(F)cc3)o2)o1 turned out to be 3.49 µM
